Test system: A2780
TEST DESCRIPTION: Inhibitory concentration against human A2780 ovarian adenocarcinoma cell line
Format: functional, cell-based
Below, each entry is listed with its recorded pIC50.
Notebook: values listed as pIC50 are -log10 of the concentration (mol/L).

Prompt: # input substance: CARBOPLATIN ; wanted: its pIC50
Response: 5.12

Prompt: # input substance: DICHLORO(ETHYLENEDIAMINE) PLATINUM (II) ; wanted: its pIC50
Response: 5.26

Prompt: # input substance: CISPLATIN ; wanted: its pIC50
Response: 5.86

Prompt: # input substance: OXALIPLATIN ; wanted: its pIC50
Response: 6.32

Hey, just so you know, these numbers are from ChEMBL document CHEMBL1142655.
